Give Kd for every item shown.
Study System: HLA-B*51:01
Assay Protocol: IEDB peptide-MHC binding, purified MHC/direct/fluorescence; filed as Kd, often an IC50 or EC50 that approximates it; bounds were set here for any values at or beyond the usual limits of such assays
Conditions Used: source organism: Mycobacterium tuberculosis

Here are 2 sequences together with their reported answers.
KPKLARGEL = ≥ 20 µM
RPRVAQLTF = ≥ 20 µM

-- ask For the sequence shown here, `RPKPDYSAM` , give the reported Kd.
-- reply ≥ 20 µM

* * *

Study System: HLA-B*57:01
Assay Protocol: IEDB peptide-MHC binding, purified MHC/competitive/fluorescence; filed as Kd, often an IC50 or EC50 that approximates it; bounds were set here for any values at or beyond the usual limits of such assays
Conditions Used: source organism: Araucaria virus
pKd: −log10 of the molar value.
Property Label: pKd

-- ask For the sequence shown here, `AQKLATKPV` , give the reported pKd.
-- reply ≤ 4.70

* * *

Study System: HLA-B*40:02
Assay Protocol: IEDB peptide-MHC binding, cellular MHC/competitive/fluorescence; bounds were set here for any values at or beyond the usual limits of such assays
Conditions Used: source organism: Homo sapiens
Property Label: IC50 (nM)
Answers are plain numbers, in nM.

REFSKEPEL = 800

-- ask For the sequence shown here, `REASPSRLS` , give the reported IC50.
-- reply 1900

* * *

Study System: HLA-A*33:01
Assay Protocol: IEDB peptide-MHC binding, purified MHC/competitive/radioactivity; filed as Kd, often an IC50 or EC50 that approximates it; bounds were set here for any values at or beyond the usual limits of such assays
Conditions Used: source organism: Mammarenavirus guanaritoense
Give Kd for every item shown.

TNFESFTVK = ≥ 77.7 µM

Each of the following entries comes with a recorded value; kindly state Kd for each.
1. KGLGHDFLR
2. LSYVIGLLPH

-- reply
["≥ 77.7 µM", "≥ 70 µM"]

* * *

Study System: HLA-B*51:01
Assay Protocol: IEDB peptide-MHC binding, purified MHC/competitive/fluorescence; filed as Kd, often an IC50 or EC50 that approximates it; bounds were set here for any values at or beyond the usual limits of such assays
Conditions Used: source organism: Entamoeba histolytica HM-1:IMSS
Property Label: Kd

-- ask For the sequence shown here, `CPLNQLEQF` , give the reported Kd.
-- reply ≥ 20 µM

* * *

Study System: HLA-A*02:19
Assay Protocol: IEDB peptide-MHC binding, purified MHC/competitive/fluorescence; filed as Kd, often an IC50 or EC50 that approximates it; bounds were set here for any values at or beyond the usual limits of such assays
Conditions Used: source organism: Bacillus anthracis str. Ames
Property Label: Kd

-- ask For the sequence shown here, `VILYFMYRK` , give the reported Kd.
-- reply ≥ 20 µM

* * *

Study System: HLA-A*02:01
Assay Protocol: IEDB peptide-MHC binding, purified MHC/competitive/radioactivity; filed as Kd, often an IC50 or EC50 that approximates it; bounds were set here for any values at or beyond the usual limits of such assays
Conditions Used: source organism: Trypanosoma cruzi
Property Label: Kd

-- ask For the sequence shown here, `DVSRPTTVV` , give the reported Kd.
-- reply ≥ 35.9 µM

* * *

Study System: HLA-B*08:02
Assay Protocol: IEDB peptide-MHC binding, purified MHC/direct/fluorescence; filed as Kd, often an IC50 or EC50 that approximates it; bounds were set here for any values at or beyond the usual limits of such assays
Conditions Used: source organism: Vibrio cholerae V52
Property Label: Kd

-- ask For the sequence shown here, `AADFPGIAR` , give the reported Kd.
-- reply ≥ 20 µM

* * *

Study System: HLA-B*15:01
Assay Protocol: IEDB peptide-MHC binding, purified MHC/direct/fluorescence; filed as Kd, often an IC50 or EC50 that approximates it; bounds were set here for any values at or beyond the usual limits of such assays
Conditions Used: source organism: Vibrio cholerae
pKd: −log10 of the molar value.
Property Label: pKd

KGHLPLLDK = ≤ 4.70

Next sequence, pKd to be filled in.
-- ask Field: pKd (HLA-B*15:01). Entry: `AADFPGIAR`
-- reply ≤ 4.70

* * *

Study System: HLA-A*01:01
Assay Protocol: IEDB peptide-MHC binding, purified MHC/competitive/fluorescence; filed as Kd, often an IC50 or EC50 that approximates it; bounds were set here for any values at or beyond the usual limits of such assays
Conditions Used: source organism: Salmonella enterica subsp. enterica serovar Typhi
Property Label: Kd (µM)
One number for each entry, in µM.

-- ask For the sequence shown here, `VTIGNAYIY` , give the reported Kd.
-- reply 3.5

* * *

Study System: HLA-B*07:02
Assay Protocol: IEDB peptide-MHC binding, purified MHC/competitive/fluorescence; filed as Kd, often an IC50 or EC50 that approximates it; bounds were set here for any values at or beyond the usual limits of such assays
Conditions Used: source organism: Yersinia pestis KIM10+
pKd: −log10 of the molar value.
Property Label: pKd

-- ask For the sequence shown here, `SRWAISHWL` , give the reported pKd.
-- reply ≤ 4.70

* * *

Study System: HLA-B*15:01
Assay Protocol: IEDB peptide-MHC binding, purified MHC/direct/fluorescence; filed as Kd, often an IC50 or EC50 that approximates it; bounds were set here for any values at or beyond the usual limits of such assays
Conditions Used: source organism: Entamoeba histolytica HM-1:IMSS
Property Label: Kd

-- ask For the sequence shown here, `IESNPLFPV` , give the reported Kd.
-- reply ≥ 20 µM

* * *

Study System: HLA-C*06:02
Assay Protocol: IEDB peptide-MHC binding, purified MHC/direct/fluorescence; filed as Kd, often an IC50 or EC50 that approximates it; bounds were set here for any values at or beyond the usual limits of such assays
Conditions Used: source organism: Dengue virus 2 Jamaica/1409/1983
Property Label: Kd (nM)
Answers are plain numbers, in nM.

-- ask For the sequence shown here, `FRKKRLTIM` , give the reported Kd.
-- reply 18

* * *

Study System: HLA-C*06:02
Assay Protocol: IEDB peptide-MHC binding, purified MHC/direct/fluorescence; filed as Kd, often an IC50 or EC50 that approximates it; bounds were set here for any values at or beyond the usual limits of such assays
Conditions Used: source organism: Bacillus anthracis str. A2012
Property Label: Kd

-- ask For the sequence shown here, `SMFDSWGPF` , give the reported Kd.
-- reply ≥ 20 µM

* * *

Study System: HLA-A*23:01
Assay Protocol: IEDB peptide-MHC binding, purified MHC/competitive/radioactivity; filed as Kd, often an IC50 or EC50 that approximates it; bounds were set here for any values at or beyond the usual limits of such assays
Conditions Used: source organism: Mammarenavirus whitewaterense
Property Label: Kd (nM)
One number for each entry, in nM.

-- ask For the sequence shown here, `FYVSSIFLHL` , give the reported Kd.
-- reply 8.55

* * *

Study System: HLA-B*15:42
Assay Protocol: IEDB peptide-MHC binding, purified MHC/competitive/fluorescence; filed as Kd, often an IC50 or EC50 that approximates it; bounds were set here for any values at or beyond the usual limits of such assays
Conditions Used: source organism: Dengue virus 3 Philippines/H87/1956
pKd: −log10 of the molar value.
Property Label: pKd

-- ask For the sequence shown here, `TVMDIISRK` , give the reported pKd.
-- reply ≤ 5.30

* * *

Study System: HLA-B*40:02
Assay Protocol: IEDB peptide-MHC binding, purified MHC/competitive/radioactivity; filed as Kd, often an IC50 or EC50 that approximates it; bounds were set here for any values at or beyond the usual limits of such assays
Conditions Used: source organism: Mammarenavirus tacaribeense
Property Label: Kd

-- ask For the sequence shown here, `AEFKSRFFVM` , give the reported Kd.
-- reply 3.57 nM

* * *

Study System: HLA-A*24:02
Assay Protocol: IEDB peptide-MHC binding, purified MHC/competitive/radioactivity; filed as Kd, often an IC50 or EC50 that approximates it; bounds were set here for any values at or beyond the usual limits of such assays
Conditions Used: source organism: Dengue virus 2 Jamaica/1409/1983
Property Label: pKd
Give bare numbers, as −log10 of the molar value.

-- ask For the sequence shown here, `IQKETLVTF` , give the reported pKd.
-- reply 5.81

* * *

Study System: HLA-A*01:01
Assay Protocol: IEDB peptide-MHC binding, purified MHC/direct/fluorescence; filed as Kd, often an IC50 or EC50 that approximates it; bounds were set here for any values at or beyond the usual limits of such assays
Conditions Used: source organism: Campylobacter jejuni
Property Label: Kd

-- ask For the sequence shown here, `WFGHLASDW` , give the reported Kd.
-- reply ≥ 20 µM

* * *

Study System: HLA-C*15:02
Assay Protocol: IEDB peptide-MHC binding, purified MHC/direct/fluorescence; filed as Kd, often an IC50 or EC50 that approximates it; bounds were set here for any values at or beyond the usual limits of such assays
Conditions Used: source organism: Brucella abortus S19
Property Label: Kd

-- ask For the sequence shown here, `YMRERLSDF` , give the reported Kd.
-- reply ≥ 20 µM

* * *

Study System: HLA-A*31:01
Assay Protocol: IEDB peptide-MHC binding, purified MHC/direct/fluorescence; filed as Kd, often an IC50 or EC50 that approximates it; bounds were set here for any values at or beyond the usual limits of such assays
Conditions Used: source organism: Vibrio vulnificus YJ016
Property Label: Kd

WHQARFEEL = ≥ 20 µM

-- ask For the sequence shown here, `GWPDNYCEW` , give the reported Kd.
-- reply ≥ 20 µM

From: the Immune Epitope Database (IEDB)
